# System: HCT-116 colon
# Experiment summary: NCI-60 one-dose screen, 48 h
# Study conditions: 10 µM unless noted
This is part of a sample that, as a whole, favours compounds with a hit. Of some 83,000 tested, about 20% had one in any assay. Activity calls are given as the source filed them. How the source made its calls: active means growth percent below 10; inactive means the rest.
Field 'call' accepts active, inactive

Query: Check the results log: what was the call for Cc1c(C(=O)N[C@@H](Cc2ccccc2)C(=O)C(=O)NCCc2ccccc2)[nH]c2ccccc2c1=O ?
Response: inactive

Query: Check the results log: what was the call for COC(=O)c1c2c(c(C)[n+]([O-])c1C)C(=O)C(NCc1ccc(F)cc1)=CC2=O ?
Response: active

Query: Check the results log: what was the call for Cc1cc(NCc2cc(Nc3ccnc4cc(Cl)ccc34)ccc2F)nc(N2CCN(C)CC2)n1 ?
Response: active

Query: Check the results log: what was the call for O=c1[nH]nc(-c2ccccc2)c2c(-c3ccccc3)onc12 ?
Response: inactive

Query: Check the results log: what was the call for COc1ccc(C(=O)/C=C/c2c(C(F)(F)F)nc3sccn23)cc1OC ?
Response: active

Query: Check the results log: what was the call for COc1cc2ncn3c(=O)c4c5c(sc4nc3c2cc1OC)CCCC5 ?
Response: inactive

Query: Check the results log: what was the call for Nc1n[nH]c2cc(F)c([C@@H]3Nc4c(F)cc5[nH]ncc5c4[C@H]4C5CCC(C5)[C@@H]34)cc12 (some centres undefined) ?
Response: active

Query: Check the results log: what was the call for O=C1CCc2c(sc3[nH]c(=S)n(-c4ccc(OC(F)(F)F)cc4)c(=O)c23)C1 ?
Response: inactive

Query: Check the results log: what was the call for CN1CCN(C(=O)c2c3c(n4ccccc24)C(=O)c2ncccc2C3=O)CC1 ?
Response: inactive
